- EXPERIMENT: binders of r(CAG) RNA repeats, primary screen, biochemical, fluorescence (AID 651821);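 note: higher means more dye released from RNA so lower well fluorescence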
- RECORDED_CONDITIONS: r(CAG) RNA repeat, TO-PRO-1 dye displacement fluorescence; at 3 µM
Out of some 370,000 compounds screened, about 4,700 (1.3%) were called active.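 Rule for the calls: active = inhibition above the plate cutoff, the mean of all test compounds on that plate plus 3 SD (cut at about 35% in these data); inactive = the rest.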 What follows is part of a selection rich in actives, with near analogues and random picks from the rest.
Just give me one of these, please: Yes = active, No = inactive

[
  {
    "MOLECULAR_STRING": "COc1ccc(-c2cc(-c3nnc(SCc4ccc([N+](=O)[O-])cc4)n3N)[nH]n2)cc1",
    "CLASS_ASSIGNMENT": "No"
  },
  {
    "MOLECULAR_STRING": "CCn1c(SCC(=O)N/N=C/c2ccccc2OCC(=O)O)nnc1-c1ccc(C(C)(C)C)cc1",
    "CLASS_ASSIGNMENT": "No"
  },
  {
    "MOLECULAR_STRING": "CC(=N\\NC(=O)c1cc(Br)ccc1O)/C(=N/O)C(=O)Nc1ccccc1",
    "CLASS_ASSIGNMENT": "Yes"
  },
  {
    "MOLECULAR_STRING": "COc1ccc(Cn2cc(COC(=O)N(C)Cc3ccccc3)nn2)cc1",
    "CLASS_ASSIGNMENT": "No"
  },
  {
    "MOLECULAR_STRING": "COc1cccc(N2CCN(CC(=O)N(C)Cc3ccc(F)cc3)CC2)c1",
    "CLASS_ASSIGNMENT": "No"
  }
]

Consider now this further compound.
Asked: Field: outcome | Entry: O=C(CC(O)(C(F)(F)F)C(F)(F)F)Nc1ccc(Cl)c(Cl)c1
Given back: No
